Biological target: Glycogen phosphorylase, liver form (Mus musculus)
Sequence (Q9ET01 whole entry): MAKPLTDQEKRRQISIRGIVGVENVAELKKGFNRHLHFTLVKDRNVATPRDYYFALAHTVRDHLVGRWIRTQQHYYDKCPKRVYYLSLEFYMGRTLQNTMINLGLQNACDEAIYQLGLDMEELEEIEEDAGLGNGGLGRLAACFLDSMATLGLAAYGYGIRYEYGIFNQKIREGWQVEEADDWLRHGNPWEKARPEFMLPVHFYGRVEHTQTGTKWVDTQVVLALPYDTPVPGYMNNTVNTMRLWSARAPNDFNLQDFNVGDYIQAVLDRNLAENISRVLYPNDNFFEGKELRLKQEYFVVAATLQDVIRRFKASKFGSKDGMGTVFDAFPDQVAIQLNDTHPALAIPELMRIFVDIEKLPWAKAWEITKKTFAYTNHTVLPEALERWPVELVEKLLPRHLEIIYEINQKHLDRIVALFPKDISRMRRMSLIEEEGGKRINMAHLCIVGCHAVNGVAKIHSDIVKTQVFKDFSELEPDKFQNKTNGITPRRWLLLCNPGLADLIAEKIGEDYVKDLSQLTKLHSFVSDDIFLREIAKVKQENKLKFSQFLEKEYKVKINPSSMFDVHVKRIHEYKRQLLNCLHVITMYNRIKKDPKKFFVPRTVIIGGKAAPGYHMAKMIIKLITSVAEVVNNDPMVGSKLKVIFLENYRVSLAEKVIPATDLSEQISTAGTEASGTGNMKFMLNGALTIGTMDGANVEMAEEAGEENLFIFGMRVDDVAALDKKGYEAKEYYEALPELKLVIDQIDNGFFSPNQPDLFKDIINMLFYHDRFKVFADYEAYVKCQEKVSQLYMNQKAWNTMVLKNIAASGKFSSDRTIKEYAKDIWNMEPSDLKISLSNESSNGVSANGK
MEASURED_ENDPOINT: pIC50
FYI, pIC50 means -log10 of a concentration in mol per litre.

Some entries whose results are on file:
STRUCTURE_NOTATION	MEASURED_TARGET	pIC50
N#Cc1ccnc(C(=O)Nc2ccccc2Oc2ccc(C(=O)O)c(C(=O)O)c2)c1	Glycogen phosphorylase, liver form (Mus musculus)	7.85
O=C(Nc1ccccc1Oc1ccc(C(=O)O)c(C(=O)O)c1)c1cc(Cl)ccn1	Glycogen phosphorylase, liver form (Mus musculus)	7.85
COc1ccnc(C(=O)Nc2ccccc2Oc2ccc(C(=O)O)c(C(=O)O)c2)c1	Glycogen phosphorylase, liver form (Mus musculus)	7.74

Lookup: Item O=C(Nc1c(F)cccc1Oc1ccc(C(=O)O)c(C(=O)O)c1)c1cccc([N+](=O)[O-])c1 has what recorded pIC50?
Found: 6.68

====

Biological target: Glycogen phosphorylase, liver form (Homo sapiens, UniProt P06737)
Sequence (P06737 whole entry): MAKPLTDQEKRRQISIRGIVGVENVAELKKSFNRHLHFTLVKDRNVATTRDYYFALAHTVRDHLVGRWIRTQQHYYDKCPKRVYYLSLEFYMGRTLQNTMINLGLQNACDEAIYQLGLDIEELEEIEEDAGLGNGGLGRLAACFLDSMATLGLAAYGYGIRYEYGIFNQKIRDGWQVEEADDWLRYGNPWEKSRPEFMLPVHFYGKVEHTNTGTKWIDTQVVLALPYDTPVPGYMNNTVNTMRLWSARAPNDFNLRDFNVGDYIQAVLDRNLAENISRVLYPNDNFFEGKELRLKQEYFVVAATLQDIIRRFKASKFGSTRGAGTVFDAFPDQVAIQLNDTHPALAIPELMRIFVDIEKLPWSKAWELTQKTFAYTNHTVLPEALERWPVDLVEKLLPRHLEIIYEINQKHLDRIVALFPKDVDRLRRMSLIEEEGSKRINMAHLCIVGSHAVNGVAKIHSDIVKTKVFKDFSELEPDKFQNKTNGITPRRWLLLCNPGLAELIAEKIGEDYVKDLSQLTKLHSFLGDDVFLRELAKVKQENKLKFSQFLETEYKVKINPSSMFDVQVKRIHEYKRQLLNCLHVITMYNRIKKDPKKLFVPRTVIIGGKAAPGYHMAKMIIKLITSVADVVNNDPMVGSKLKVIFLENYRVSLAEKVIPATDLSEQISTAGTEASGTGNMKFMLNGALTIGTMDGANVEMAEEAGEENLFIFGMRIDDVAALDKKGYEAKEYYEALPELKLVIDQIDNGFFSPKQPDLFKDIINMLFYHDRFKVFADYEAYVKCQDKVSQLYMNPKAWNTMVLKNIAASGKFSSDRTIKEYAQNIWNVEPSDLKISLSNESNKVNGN
MEASURED_ENDPOINT: pIC50
// field semantics: pIC50 = negative decimal log of concentration (mol/L)

Please review the following examples before continuing.
STRUCTURE_NOTATION	MEASURED_TARGET	pIC50
O=C(Nc1cc(F)ccc1Oc1ccc(C(=O)O)c(C(=O)O)c1)c1cc(Cl)ccn1	Glycogen phosphorylase, liver form (Homo sapiens, UniProt P06737)	7.11
CCc1ccnc(C(=O)Nc2cc3ccccc3cc2Oc2ccc(C(=O)O)c(C(=O)O)c2)c1	Glycogen phosphorylase, liver form (Homo sapiens, UniProt P06737)	8.40
COc1ccnc(C(=O)Nc2c(F)cccc2Oc2ccc(C(=O)O)c(C(=O)O)c2)c1	Glycogen phosphorylase, liver form (Homo sapiens, UniProt P06737)	7.96
Cc1ccnc(C(=O)Nc2cc3ccccc3cc2Oc2ccc(C(=O)O)c(C(=O)O)c2)c1	Glycogen phosphorylase, liver form (Homo sapiens, UniProt P06737)	8.00

Lookup: Query pIC50 on Glycogen phosphorylase, liver form (Homo sapiens, UniProt P06737) for O=C(Nc1cc2ccccc2cc1Oc1ccc(C(=O)O)c(C(=O)O)c1)c1cc(Cl)ccn1
Found: 8.70
